The entries below are paired with their reported IC50 (pVNT).
Target: BQ.1.1 spike protein (SARS-CoV-2 variant BQ.1.1, UniProt P0DTC2 14-1273)
Experiment: cell-based or functional assay

Answered examples (5):
INSERT INTO measurements (binder, recorded_measurement) VALUES
  ('Ab44 (10x-L8N-c53) (antibody, V domains shown) VH: QVQLQQSGAEVKKPGSSVKVSCESSGGTFTSHAINWVRQAPGQRLEWMGRIIPVLGVAAYAQKFQGRVTLTADKFTSTAYMELSSLRSEDTAVYFCARSAYNYDSSGYHFDYWGQGTLVLVSS VL: DIQMTQSPSTLSASVGDRVTITCRASQSISNWLAWYQQKPGTAPKLLIFKASTLQSGVPSRFSGSGSGTEFTLTISSLQPDDFATYHCQQYHSSRSFGQGTKVEIK', '≤ 550 ng/ml'),
  ('Ab32 (10x-L8N-c12) (antibody, V domains shown) VH: EVQLVESGGGLVQPGGSLRVTCVASGFAVRTNFMTWVRQAPGKGLQCVSVIYGDGSTYYADSVKGRFSISRDNSKNTVYLQMNSLSAEDTAVYYCAREVSHAFDLWGPGTMVTVSS VL: DIQLTQSPSTLSASLGDRVTITCRASQSISGWLAWYQQKPGRAPQLLIYKASLLETGVPSRFSGSGSGTVFTLTISSLQPDDFATYYCQQYDTYSPYTFGQGTKLEIK', '≤ 550 ng/ml'),
  ('Ab3 (C2.2) (antibody, V domains shown) VH: QVQLVQSGAEVKKPGSSVRVSCEASGDTFSRYAISWVRQAPGQGLEWMGRIIPMFGMANSAQKFQARVTISADKSTSTAYMEVSSLRSEDTAVYYCATDTFYPNDGVHRMEYWGQGALVIVSS VL: DIQMTQSPSSLSASVGDRVTITCRASQTISNYLNWYQQKPGKAPNLLIYGTSILQSGVPSRFSGSGSGTDFTLTISSLQPEDFATYYCQQSHSAPRTFGPGTKVDIK', '≤ 300 ng/ml'),
  ('Ab50 (10x-L8N-c84) (antibody, V domains shown) VH: QVQLVQSGAAVKKPGSSVKVSCEASGGTFSRFAVNWVRQAPGQGLEWMGRIIPLFAIANYPQRFQGRVIMSADRSTNITYMELSRLTSEDTAVYYCAREIDTVIDPAMDVFHGMEVWGQGTTVIVSS VL: QSVLTQPPSASGTPGQRVTISCSGRSSNIGSNYVHWYQQLPGTAPKLLIYRNNQRPSGVPDRFSGSKSGTSASLAISGLRSEDEADYYCAGWDDSLSGAVFGGGTKLSVL', '≤ 550 ng/ml'),
  ('Ab12 (H5) (antibody, V domains shown) VH: EVQLLESGGGLVQPGGSLRLSCAASGFTFSGSDMSWVRQAPGKGLEWVSVIGGSGTYAYYSDSVKGRFTISRDNSKNMLFLQMNSLRAEDTAIYYCAKETGFLWFGELLDSWGQGALVTVSS VL: DIQMTQSPSSLSASVGDRVTITCRASEAISNSLAWYQQRPGKAPRLLLYAAATLESGVPPRFSGSGSGTDFTLTISTLQPEDFATYYCQQYYSPPPRTFGQGTKVEIK', '≤ 550 ng/ml');

The binder Ab20 (C6.1) (antibody, V domains shown) VH: EVQLVESGGGLVKPGGSLRLSCAASGFAFSTNGMNWVRQVPGKGLEWVSSISSTSEYTYYTESVKGRFTISRDNAKNSLFLQMNSLRAEDTAVYYCVRDRFGYYDVLASSYNVGFFQSWGQGALVTVSS VL: DIQMTQSPSSLSASVGDGVTITCRASQDISNNLAWFQQKPGKAPKCLIYSASSLQSGVPLKFRGSGSGTDFTLSITSLDPEDFATYYCQQYISYPITFGQGTRLDIK showed IC50 (pVNT) equal to ≤ 550 ng/ml

The binder Ab48 (10x-L8N-c72) (antibody, V domains shown) VH: QVQLQQWGAGLLKPSETLSLTCTVYGGSISGYYWNWIRQPPGKGLEWIGEIDHSGNTNYNSSLKSRITIALDTSKKEISLKVTSVTAADTAVYYCARLDYYHYSQDAWGQGTTVTVSS VL: EIVLTQSPDFQSVTPKERVTITCRASQSIGASLHWYQLKPNQSPKLLIKYASQSISGVPSRFSGSGSGTDFTLTISSLEAEDAATYYCLQSSNLYSFGQGTKLEIK showed IC50 (pVNT) equal to ≤ 550 ng/ml
